Hello, the source for this data is the Immune Epitope Database (IEDB), in case you need it.

Each entry below carries its reported Kd.
Target: HLA-B*27:03
Assay: IEDB peptide-MHC binding, purified MHC/competitive/fluorescence; filed as Kd, often an IC50 or EC50 that approximates it; bounds were set here for any values at or beyond the usual limits of such assays
Conditions: source organism: Entamoeba dispar SAW760

> print(dat)
   item.sequence  reported.value
1      FELLHFISS         ≥ 20 µM

From here, focus on the item given below.
State the recorded Kd for this entry: LVGNTLTTC ≥ 20 µM

* * *

Biological target: HLA-B*44:02
Test: IEDB peptide-MHC binding, purified MHC/direct/fluorescence; filed as Kd, often an IC50 or EC50 that approximates it; bounds were set here for any values at or beyond the usual limits of such assays
Settings: source organism: Haemophilus influenzae
pKd: −log10 of the molar value.
MEASUREMENT_LABEL: pKd

State the recorded pKd for this entry: IMDEPTSSL ≤ 4.70

* * *

Target: HLA-B*07:02
Experiment: IEDB peptide-MHC binding, purified MHC/direct/fluorescence; filed as Kd, often an IC50 or EC50 that approximates it; bounds were set here for any values at or beyond the usual limits of such assays
Conditions: source organism: Vibrio vulnificus CMCP6
MEASUREMENT_LABEL: pKd
The read-out pKd is expressed as -log10 of concentration in moles per litre.

State the recorded pKd for this entry: MPIAAAIGT 6.00

* * *

Biological target: HLA-A*02:01
Assay: IEDB peptide-MHC binding, purified MHC/competitive/radioactivity; filed as Kd, often an IC50 or EC50 that approximates it; bounds were set here for any values at or beyond the usual limits of such assays
Conditions: source organism: Dengue virus 1 Singapore/S275/1990
MEASUREMENT_LABEL: Kd (nM)
State the answer as a number, implicitly in nM.

State the recorded Kd for this entry: IIFILLMLV 43.7

* * *

Target: HLA-B*27:03
Test: IEDB peptide-MHC binding, purified MHC/competitive/fluorescence; filed as Kd, often an IC50 or EC50 that approximates it; bounds were set here for any values at or beyond the usual limits of such assays
Settings: source organism: Reston ebolavirus - Reston (1989)
MEASUREMENT_LABEL: Kd

State the recorded Kd for this entry: LIMEFNSLL ≥ 20 µM

* * *

Target: HLA-A*03:01
Assay: IEDB peptide-MHC binding, purified MHC/direct/fluorescence; filed as Kd, often an IC50 or EC50 that approximates it; bounds were set here for any values at or beyond the usual limits of such assays
Details: source organism: Mycobacterium tuberculosis
MEASUREMENT_LABEL: Kd

State the recorded Kd for this entry: KPARGGSSI ≥ 20 µM

* * *

Molecular target: HLA-A*03:01
Test: IEDB peptide-MHC binding, purified MHC/competitive/fluorescence; bounds were set here for any values at or beyond the usual limits of such assays
Settings: source organism: Variola virus
MEASUREMENT_LABEL: pIC50
The read-out pIC50 is expressed as -log10 of concentration in moles per litre.

State the recorded pIC50 for this entry: KLSLTKLFS 4.47

* * *

Target: HLA-A*26:01
Test: IEDB peptide-MHC binding, purified MHC/competitive/radioactivity; filed as Kd, often an IC50 or EC50 that approximates it; bounds were set here for any values at or beyond the usual limits of such assays
Details: source organism: Triticum aestivum
MEASUREMENT_LABEL: Kd

State the recorded Kd for this entry: SFQQPQQQY ≥ 43.7 µM

* * *

Target: HLA-B*35:01
Assay: IEDB peptide-MHC binding, purified MHC/competitive/radioactivity; filed as Kd, often an IC50 or EC50 that approximates it; bounds were set here for any values at or beyond the usual limits of such assays
Conditions: source organism: SARS coronavirus Tor2
MEASUREMENT_LABEL: Kd (nM)
State the answer as a number, implicitly in nM.

> print(dat)
   item.sequence  measurement.label  reported.value
1      FPREGVFVF                 Kd           0.684

From here, focus on the item given below.
State the recorded Kd for this entry: MPNMLRIMA 11.7

* * *

Biological target: HLA-A*03:01
Test: IEDB peptide-MHC binding, purified MHC/competitive/radioactivity; filed as Kd, often an IC50 or EC50 that approximates it; bounds were set here for any values at or beyond the usual limits of such assays
Conditions: source organism: Vaccinia virus Copenhagen
MEASUREMENT_LABEL: pKd
The read-out pKd is expressed as -log10 of concentration in moles per litre.

> print(dat)
   item.sequence  measurement.label  reported.value
1     LTILDDNLYK                pKd            6.64

Please tell me: pKd of IFAFIDFSK , system HLA-A*03:01? 7.11

Please tell me: pKd of IVNNQESNK , system HLA-A*03:01? 6.88

Please tell me: pKd of SSLDQTHIK , system HLA-A*03:01? 6.02

Please tell me: pKd of QLMYALEPRK , system HLA-A*03:01? 6.82

* * *

Target: HLA-A*02:02
Test: IEDB peptide-MHC binding, purified MHC/competitive/radioactivity; filed as Kd, often an IC50 or EC50 that approximates it; bounds were set here for any values at or beyond the usual limits of such assays
Conditions: source organism: Mammarenavirus choriomeningitidis
MEASUREMENT_LABEL: pKd
The read-out pKd is expressed as -log10 of concentration in moles per litre.

State the recorded pKd for this entry: LNQTVYSLV 5.48

* * *

Target: HLA-B*44:02
Assay: IEDB peptide-MHC binding, purified MHC/direct/fluorescence; filed as Kd, often an IC50 or EC50 that approximates it; bounds were set here for any values at or beyond the usual limits of such assays
Details: source organism: West Nile virus
pKd: −log10 of the molar value.
MEASUREMENT_LABEL: pKd

State the recorded pKd for this entry: LYAVTTAVL ≤ 4.70

* * *

Each entry below carries its reported IC50.
Molecular target: HLA-A*11:01
Experiment: IEDB peptide-MHC binding, purified MHC/competitive/fluorescence; bounds were set here for any values at or beyond the usual limits of such assays
Conditions: source organism: Zaire ebolavirus
State the answer as a number, implicitly in nM.

Sample records with IC50:
> print(dat)
   item.sequence  reported.value
1      CAGDFAFHK            1390
2      LQLPRDRFK            1760
3      QTNAMVTLR            1200
4      KAALSSLAK             483
5      VAGLITGGR           26100
6      NTTGKLIWK            1040
7      GSYGEYQSY            1290

From here, focus on the item given below.
State the recorded IC50 for this entry: TTAAGPPKA 40600

* * *

Target: HLA-A*11:01
Test: IEDB peptide-MHC binding, purified MHC/competitive/radioactivity; filed as Kd, often an IC50 or EC50 that approximates it; bounds were set here for any values at or beyond the usual limits of such assays
Conditions: source organism: Mammarenavirus machupoense
pKd: −log10 of the molar value.
MEASUREMENT_LABEL: pKd

State the recorded pKd for this entry: EWMLIAAKMK ≤ 4.62

* * *

Target: HLA-A*29:02
Experiment: IEDB peptide-MHC binding, purified MHC/competitive/radioactivity; filed as Kd, often an IC50 or EC50 that approximates it; bounds were set here for any values at or beyond the usual limits of such assays
Settings: source organism: Triticum aestivum
MEASUREMENT_LABEL: Kd (nM)
State the answer as a number, implicitly in nM.

State the recorded Kd for this entry: SFQQPQQQY 84.1

* * *

Target: HLA-A*02:01
Experiment: IEDB peptide-MHC binding, purified MHC/direct/fluorescence; filed as Kd, often an IC50 or EC50 that approximates it; bounds were set here for any values at or beyond the usual limits of such assays
Conditions: source organism: SARS-CoV1
Each entry below carries its reported Kd.
State the answer as a number, implicitly in µM.

> print(dat)
   item.sequence    tested.on  measurement.label  unit.of.measure  reported.value
1      IQQLPETYF  HLA-A*02:01                 Kd               µM            16.8

From here, focus on the item given below.
State the recorded Kd for this entry: KLWAQCVQL 0.109

* * *

Biological target: HLA-B*35:01
Assay: IEDB peptide-MHC binding, purified MHC/competitive/fluorescence; filed as Kd, often an IC50 or EC50 that approximates it; bounds were set here for any values at or beyond the usual limits of such assays
Settings: source organism: Yersinia pestis Nepal516
Each entry below carries its reported pKd.
The read-out pKd is expressed as -log10 of concentration in moles per litre.

> print(dat)
   item.sequence  reported.value
1      HLIQNPNPF            7.56

From here, focus on the item given below.
State the recorded pKd for this entry: LPFLKSLAI 7.34
